- assay overview: Lethal dose in mice after peroral administration
- Type: toxicity, organism-based
- measurement parameters: mouse, in vivo, po
Listed here: items and their measured LD50.
measurement kind: LD50

>>> result("C#CCNC(=O)[C@H]1OC(n2cnc3c(N)ncnc32)[C@H](O)[C@@H]1O (stereo partly drawn)")
"> 1000 mg/kg"
>>> result("Nc1ncnc2c1ncn2C1O[C@H](C(=O)Nc2ccccc2)[C@@H](O)[C@H]1O (stereo partly drawn)")
"> 1000 mg/kg"
>>> result("CCC(CC)NC(=O)[C@H]1OC(n2cnc3c(N)ncnc32)[C@H](O)[C@@H]1O (stereo partly drawn)")
"> 300 mg/kg"

###

Examples of molecules with documented LD50 follow.
- assay overview: Lethal dose in mice after intraperitoneal administration
- Type: toxicity, organism-based
- measurement parameters: mouse, in vivo, ip
measurement kind: LD50

>>> result("C=CCN(CC=C)C(=O)[C@H]1OC(n2cnc3c(N)ncnc32)[C@H](O)[C@@H]1O (stereo partly drawn)")
"> 300 mg/kg"
>>> result("CCOC(=O)CNC(=O)[C@H]1OC(n2cnc3c(N)ncnc32)[C@H](O)[C@@H]1O (stereo partly drawn)")
"> 300 mg/kg"
>>> result("COc1ccccc1N1CCN(C(=O)[C@H]2OC(n3cnc4c(N)ncnc43)[C@H](O)[C@@H]2O)CC1 (stereo partly drawn)")
"> 300 mg/kg"
>>> result("C=CCNC(=O)[C@H]1O[C@@H](n2cnc3c(N)ncnc32)[C@H]2OC(C)(C)OC12 (stereo partly drawn)")
"> 1000 mg/kg"
>>> result("CC1(C)OC2[C@@H](C(=O)NC3CC3)O[C@@H](n3cnc4c(N)ncnc43)[C@H]2O1 (stereo partly drawn)")
"> 300 mg/kg"
>>> result("Nc1ncnc2c1ncn2C1O[C@H](C(=O)Nc2ccccc2)[C@@H](O)[C@H]1O (stereo partly drawn)")
"> 1000 mg/kg"
>>> result("Nc1ncnc2c1ncn2C1O[C@H](C(=O)N2CCCCC2)[C@@H](O)[C@H]1O (stereo partly drawn)")
"> 1000 mg/kg"
>>> result("CCC(=O)c1ccccc1NC(=O)[C@H]1OC(n2cnc3c(N)ncnc32)[C@H](O)[C@@H]1O (stereo partly drawn)")
"> 1000 mg/kg"

###

Quick list: LD50 per entry.
- assay overview: Lethal dose in mice after intraperitoneal administration
- Type: toxicity, organism-based
- measurement parameters: mouse, in vivo, ip
measurement kind: LD50

>>> result("Cc1cccc(OCC(O)CNC(=O)[C@H]2OC(n3cnc4c(N)ncnc43)[C@H](O)[C@@H]2O)c1 (stereo partly drawn)")
"> 300 mg/kg"
>>> result("Cc1cccc(C)c1NC(=O)[C@H]1OC(n2cnc3c(N)ncnc32)[C@H](O)[C@@H]1O (stereo partly drawn)")
"> 1000 mg/kg"
>>> result("Nc1ncnc2c1ncn2C1O[C@H](C(=O)N2CCOCC2)[C@@H](O)[C@H]1O (stereo partly drawn)")
"> 300 mg/kg"

###

Catalogue of compounds with associated LD50
- assay overview: Lethal dose in mice after peroral administration
- Type: toxicity, organism-based
- measurement parameters: mouse, in vivo, po
measurement kind: LD50

>>> result("CN(C)CCNC(=O)[C@H]1OC(n2cnc3c(N)ncnc32)[C@H](O)[C@@H]1O (stereo not given in full)")
"500 mg/kg"
>>> result("C=CCNC(=O)[C@H]1O[C@@H](n2cnc3c(N)ncnc32)[C@H]2OC(C)(C)OC12 (stereo not given in full)")
"> 1000 mg/kg"
>>> result("NC(=O)[C@H]1OC(n2cnc3c(N)ncnc32)[C@H](O)[C@@H]1O (stereo not given in full)")
"50 mg/kg"
>>> result("Nc1ncnc2c1ncn2C1O[C@H](C(=O)NC23CC4CC(CC(C4)C2)C3)[C@@H](O)[C@H]1O (stereo not given in full)")
"> 300 mg/kg"
>>> result("CONC(=O)[C@H]1O[C@@H](n2cnc3c(N)ncnc32)[C@H](O)[C@@H]1O")
"50 mg/kg"
>>> result("Nc1ncnc2c1ncn2C1O[C@H](C(=O)NCC(O)COc2cccc3ccccc23)[C@@H](O)[C@H]1O (stereo not given in full)")
"> 300 mg/kg"
>>> result("C=CCN(CC=C)C(=O)[C@H]1OC(n2cnc3c(N)ncnc32)[C@H](O)[C@@H]1O (stereo not given in full)")
"> 300 mg/kg"
>>> result("Nc1ncnc2c1ncn2C1O[C@H](C(=O)NCCc2ccccc2)[C@@H](O)[C@H]1O (stereo not given in full)")
"> 1000 mg/kg"
>>> result("CCN(CC)CCNC(=O)[C@H]1OC(n2cnc3c(N)ncnc32)[C@H](O)[C@@H]1O (stereo not given in full)")
"> 1000 mg/kg"
>>> result("CCC(=O)c1ccccc1NC(=O)[C@H]1OC(n2cnc3c(N)ncnc32)[C@H](O)[C@@H]1O (stereo not given in full)")
"> 1000 mg/kg"
